- Assay notes: acute toxicity in mice
- Run parameters: mouse, in vivo, ip
Where a name gives a salt, the structure may show the parent alone.
Readout type: LD50 (mg/kg)

1) CCNC(C)Cc1cccc(C(F)(F)F)c1 (racemic) [Fenfluramine, hydrochloride]	100
2) COc1ccc(CC2CNC(=O)N2)cc1OC1CCCC1 (centres unmarked)	680

----------
Recorded measurements of LD50, one per entry
- Assay notes: acute toxicity in mice
- Run parameters: mouse, in vivo, po
Readout type: LD50 (mg/kg)

1. COc1ccc(CC2CNC(=O)N2)cc1OC1CCCC1 (centres unmarked)	2050
2. OC1(c2ccc(Cl)cc2)c2ccccc2C2=NCCN21 (centres unmarked)	106
